# Test system: E. coli thyA folA KO + Pf K1
# METHOD: microbe, parasite or virus in culture
# Type: cell-based
# EXPERIMENTAL_PARAMETERS: Escherichia coli; host expressing P. falciparum K1 DHFR-TS; minimal media with ampicillin, 37 degrees Celsius, 6 hours, OD 600 nm
PROPERTY_LABEL: pIC50
// field semantics: pIC50 = negative decimal log of concentration (mol/L)

Task: Any idea what pIC50 was measured for `CCc1nc(N)nc(N)c1-c1ccc(Cl)cc1` ?
Result: 4.50
